This section presents log10 of IC50 values reported for Metabotropic glutamate receptor 2 (Homo sapiens, UniProt Q14416) in the literature.
Response schema: value (number) is log10 of IC50 in units of nM.

Illustrative cases are given below, each with its answer.
COMPOUND | MEASURED TARGET | log10 of IC50
N#Cc1ccccc1-c1cc2c(cc1-c1ccc(F)cc1F)C(=O)NC2 | Metabotropic glutamate receptor 2 (Homo sapiens, UniProt Q14416) | 2.70
COc1ccc(-c2cn3c(=O)[nH]nc3cc2OCc2cc(C)n(C)n2)c(F)c1 | Metabotropic glutamate receptor 2 (Homo sapiens, UniProt Q14416) | 2.08
CCOc1ccc(-c2nc(-c3ccc(S(=O)(=O)NC4CC4)cc3)c3n2C[C@@H](C)OCC3)cc1 | Metabotropic glutamate receptor 2 (Homo sapiens, UniProt Q14416) | 0.59

Please report the recorded log10 of IC50 for `COc1ccc(-c2nc(-c3ccc(S(=O)(=O)NC(C)(C)C)cc3)c3n2C[C@@H](CF)OCC3)cc1` .
0.49

Please report the recorded log10 of IC50 for `Cc1csc(COc2cc3n[nH]c(=O)n3cc2-c2ccc(F)cc2)n1` .
2.23

Please report the recorded log10 of IC50 for `CS(=O)(=O)Nc1cccc(-c2cc3c(cc2-c2ccc(F)cc2F)C(=O)NC3)c1` .
2.97

Please report the recorded log10 of IC50 for `COc1ccc(-c2cn3c(=O)[nH]nc3cc2OCc2ccn(C)n2)cc1` .
1.93

Please report the recorded log10 of IC50 for CC1Cn2c(-c3ccc(F)cc3)nc(-c3ccc(S(=O)(=O)NC4(C)CCC4)cc3)c2CCO1 (centres unmarked) .
0.36

Please report the recorded log10 of IC50 for `Cn1cc(S(=O)(=O)Nc2ccccc2-c2cc3c(cc2-c2ccc(F)cc2F)C(=O)NC3)nn1` .
3.05

Please report the recorded log10 of IC50 for `CNC(=O)c1cc(Cl)cc(-c2cc3c(cc2-c2ccc(F)cc2F)C(=O)NC3)c1` .
2.87

Please report the recorded log10 of IC50 for `CCNS(=O)(=O)c1ccc(-c2nc(-c3ccc(OC(F)F)cc3)n3c2CCO[C@H](CF)C3)cc1` .
0.59

Please report the recorded log10 of IC50 for `COc1ccc(-c2cc3c(cc2-c2cccc(C#N)c2)CNC3=O)c(F)c1F` .
3.05

Please report the recorded log10 of IC50 for `CCNS(=O)(=O)c1ccc(-c2nc(-c3ccc(OC)cc3)n3c2CCO[C@H](CF)C3)cc1` .
0.78

Please report the recorded log10 of IC50 for CC1Cn2c(-c3ccc(OC(F)F)cc3)nc(-c3ccc(S(=O)(=O)NC4(C)CCC4)cc3)c2CCO1 (centres unmarked) .
0.36

Please report the recorded log10 of IC50 for `O=C1NCc2cc(CCc3ccn(C4CC4)n3)c(-c3ccc(F)cc3F)cc21` .
2.62

----------
This section presents pIC50 values reported for Metabotropic glutamate receptor 2 (Homo sapiens) in the literature.
Schema: pIC50 number; meaning minus log10 of the concentration expressed in molar units.

Illustrative cases are given below, each with its answer.
ITEM SMILES | MEASURED VALUE
N#Cc1cc(F)ccc1-c1cc2c(cc1-c1ccc(F)cc1F)C(=O)NC2 | 6.35
CCNS(=O)(=O)c1ccc(-c2nc(-c3ccc(OCF)cc3)n3c2CCO[C@H](C)C3)cc1 | 7.95
O=C1NCc2cc(-c3cnn(CC4CC4)c3)c(-c3ccc(F)cc3F)cc21 | 6.28
C[C@H]1CN(c2ccc(C(F)(F)F)cc2)C(=O)c2c(C#Cc3cnc(N)cc3C[18F])cnn21 | 8.56
C[C@@H]1Cn2c(-c3ccc(OC(F)F)cc3)nc(-c3ccc(S(=O)(=O)NC4CC4)cc3)c2CCO1 | 8.80

Please state recorded pIC50 (tested on Metabotropic glutamate receptor 2 (Homo sapiens)) of `COc1ccc(-c2nc(-c3ccc(S(=O)(=O)NC(C)C)cc3)c3n2C[C@@H](CF)OCC3)cc1`
8.51

Please state recorded pIC50 (tested on Metabotropic glutamate receptor 2 (Homo sapiens)) of `O=S(=O)(NC1CCC1)c1ccc(-c2nc(-c3ccc(F)cc3)n3c2CCO[C@H](CF)C3)cc1`
8.66
